These measurements were taken from ChEMBL document CHEMBL3112571.

pEC50 values by entry
- assay-system: Cannabinoid receptor 1 (Homo sapiens, UniProt P21554)
- Sequence (P21554 whole entry): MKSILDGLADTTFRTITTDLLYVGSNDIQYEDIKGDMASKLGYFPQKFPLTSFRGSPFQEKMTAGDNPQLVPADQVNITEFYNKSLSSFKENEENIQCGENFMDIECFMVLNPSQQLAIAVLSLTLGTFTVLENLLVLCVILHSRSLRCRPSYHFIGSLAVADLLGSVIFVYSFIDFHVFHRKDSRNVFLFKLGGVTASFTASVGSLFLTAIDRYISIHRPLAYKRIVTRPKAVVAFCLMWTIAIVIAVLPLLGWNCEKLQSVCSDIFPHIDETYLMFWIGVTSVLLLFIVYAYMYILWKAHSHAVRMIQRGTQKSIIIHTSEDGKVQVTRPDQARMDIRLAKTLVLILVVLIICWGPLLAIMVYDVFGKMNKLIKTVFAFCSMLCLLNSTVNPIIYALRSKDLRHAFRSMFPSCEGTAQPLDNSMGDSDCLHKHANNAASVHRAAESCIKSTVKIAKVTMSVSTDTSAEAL
- measurement-protocol: Agonist activity at human CB1 receptor expressed in CHO-K1 cells assessed as forskolin-induced cAMP accumulation after 1 hr
pEC50: −log10 of the molar value.
assay-readout: pEC50

- CCn1c(C(=O)NCC2(CO)CCCC2)nc2c(-c3ccccc3)cccc21: < 4.77
- O=C(NCc1ccccc1Cl)c1nc2c(-c3ccccc3)cccc2[nH]1: < 4.77
- CC(C)(C)CNC(=O)c1nc2c(-c3ccccc3)cccc2[nH]1: < 4.77
- O=C(NC12CC3CC(CC(C3)C1)C2)c1nc2c(-c3ccccc3)cccc2[nH]1: 6.91
- O=C(NCC1(CO)CCCC1)c1nc2c(-c3ccccc3)cccc2n1CC(F)(F)F: < 4.77

---

- assay-system: Cannabinoid receptor 2 (Homo sapiens)
- measurement-protocol: Agonist activity at human CB2 receptor expressed in CHO-K1 cells assessed as forskolin-induced cAMP accumulation after 1 hr
assay-readout: EC50 (nM)

- O=C(NCc1ccccc1Cl)c1nc2c(-c3ccccc3)cccc2[nH]1: 443
- O=C(NCc1ncccc1F)c1nc2c(-c3ccccc3)cccc2[nH]1: 1440
- CCn1c(C(=O)NCc2ccc(C#N)cc2)nc2c(-c3ccccc3)cccc21: 84
- O=C(NCc1cccc(C(F)(F)F)c1)c1nc2c(-c3ccccc3)cccc2[nH]1: 256
- O=C(NCc1cccc(Cl)c1)c1nc2c(-c3ccccc3)cccc2[nH]1: 165
- O=C(NCc1ccccc1)c1nc2c(-c3ccccc3)cccc2[nH]1: 991
- O=C(NCC1(CO)CCCC1)c1nc2c(-c3ccccc3)cccc2[nH]1: 24.6
- O=C(NCC(O)CO)c1nc2c(-c3ccccc3)cccc2[nH]1 (stereo not given): 6.3
- CCn1c(C(=O)NCC(C)(C)C)nc2c(-c3ccccc3)cccc21: 490

---

- assay-system: Cannabinoid receptor 2 (Homo sapiens, UniProt P34972)
- Sequence (P34972 whole entry): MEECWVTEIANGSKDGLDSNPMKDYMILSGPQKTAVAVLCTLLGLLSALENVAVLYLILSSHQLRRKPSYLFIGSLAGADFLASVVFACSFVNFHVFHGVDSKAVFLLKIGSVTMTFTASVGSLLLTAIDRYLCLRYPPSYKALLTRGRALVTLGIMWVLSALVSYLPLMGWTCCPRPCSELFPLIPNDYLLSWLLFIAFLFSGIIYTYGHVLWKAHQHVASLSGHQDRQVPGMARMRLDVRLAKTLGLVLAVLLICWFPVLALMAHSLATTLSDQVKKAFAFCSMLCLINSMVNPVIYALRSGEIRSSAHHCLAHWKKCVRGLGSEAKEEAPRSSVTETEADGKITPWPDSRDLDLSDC
- measurement-protocol: Agonist activity at human CB2 receptor expressed in CHO-K1 cells assessed as forskolin-induced cAMP accumulation after 1 hr relative to control
- Format: functional, cell-based
Think of 70% as a floor: if Emax stands on it or above, it is Y; beneath it, N.

* CCn1c(C(=O)NCc2ccccc2Cl)nc2c(-c3ccccc3)cccc21 | Y
* O=C(NC12CC3CC(CC(C3)C1)C2)c1nc2c(-c3ccccc3)cccc2[nH]1 | Y
* CCn1c(C(=O)NCc2ccc(C#N)cc2)nc2c(-c3ccccc3)cccc21 | Y
* O=C(NCc1ccccc1F)c1nc2c(-c3ccccc3)cccc2[nH]1 | N
* O=C(NCC1(CO)CCCCC1)c1nc2c(-c3ccccc3)cccc2[nH]1 | Y
* CCn1c(C(=O)NCc2cccc(Cl)c2)nc2c(-c3ccccc3)cccc21 | Y
* O=C(NCc1ncccc1F)c1nc2c(-c3ccccc3)cccc2[nH]1 | N
* O=C(NCc1cccc(Cl)c1)c1nc2c(-c3ccccc3)cccc2[nH]1 | N
* O=C(NCc1ccccc1Cl)c1nc2c(-c3ccccc3)cccc2[nH]1 | N
